Where do the numbers come from? From paper PMC9482650.

target: Inadl_8, Q8NI35; test: holdup assay; parameters: key: below the threshold = too weak to quantify, mostly under pKd 3.1 to 4; settings: plain residues with an end cap or a label only (N-terminal biotin on a linker: ado-ado)
Sequence (Q8NI35 1425-1530): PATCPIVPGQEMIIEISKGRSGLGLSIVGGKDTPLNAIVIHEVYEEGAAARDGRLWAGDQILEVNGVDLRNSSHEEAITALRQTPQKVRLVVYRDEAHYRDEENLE
The threshold is inclusive: pKd of exactly 4 counts as yes (1); values below receive no (0).

Binder: DDENIRTSDV [PLEKHA2, Q9HB19]
Category: yes (1)

Binder: FNSYSLTGYV [CLDN2, P57739]
Category: yes (1)

Binder: QHKTQLQTLI [BPIFA2, Q96DR5]
Category: no (0)

Binder: KKMPSIESDV [GRIN2A, Q12879]
Category: no (0)

Binder: LPAHHNATRL [SLC34A1, Q06495]
Category: no (0)

Binder: SAKVRTVTSV [RASL11B, Q9BPW5]
Category: yes (1)

Binder: QMNQTLPVQV [EPHB3, P54753]
Category: no (0)

Binder: PPYRHRNTVV [ERBB4, Q15303]
Category: yes (1)

Binder: TPPAAKKSRI [BAZ1A, Q9NRL2]
Category: yes (1)

Binder: TACCHSETVV [TGFA, P01135]
Category: no (0)

Binder: YYKRPVQEWV [MMP24, Q9Y5R2]
Category: no (0)
